- Tested on: upland rice (Oryza sp., var. Tebonnet, RICE)
- measurement-description: Pre-emerge test, crop safety
- Assay type: in vivo
- condition-notes: 63 g ai/ha; rated 14 days after application; 0 = no damage, 100 = complete death
Each entry falls in a class defined on Pre-emerge phytotoxicity rating (0-100), crop damage, RICE; the bands are lowest = under 10, middle = from 10 up to 70, highest = 70 and over

| compound | assigned-label |
| --- | --- |
| COc1c(Cl)cc(F)c(-n2c(=O)cc(C(F)(F)F)n(N)c2=O)c1NC(=O)c1ccc2ccccc2c1 [2-77] | lowest |

Input: Just checking, what class would you give COc1c(Cl)cc(F)c(-n2c(=O)cc(C(F)(F)F)n(C)c2=O)c1N(C(=O)c1ccc([N+](=O)[O-])cc1)C(=O)c1ccc([N+](=O)[O-])cc1 [2-69] here?
Output: middle

Input: Just checking, what class would you give COc1c(Cl)cc(F)c(-n2c(=O)cc(C(F)(F)F)n(C)c2=O)c1NC(=O)c1ccc2ccccc2c1 [2-75] here?
Output: middle

Input: Just checking, what class would you give COc1c(Cl)cc(F)c(-n2c(=O)cc(C(F)(F)F)n(C)c2=O)c1NC(=O)c1cc(F)cc(F)c1 [2-50] here?
Output: middle

Input: Just checking, what class would you give COc1c(Cl)cc(F)c(-n2c(=O)cc(C(F)(F)F)n(C)c2=O)c1NC(=O)CCc1ccccc1 [2-86] here?
Output: highest

Input: Just checking, what class would you give COc1c(Cl)cc(F)c(-n2c(=O)cc(C(F)(F)F)n(C)c2=O)c1NC(=O)c1cc([N+](=O)[O-])cc([N+](=O)[O-])c1 [2-70] here?
Output: lowest

Input: Just checking, what class would you give COc1c(Cl)cc(F)c(-n2c(=O)cc(C(F)(F)F)n(C)c2=O)c1NC(=O)c1cnc2ccccc2n1 [2-105] here?
Output: middle

Input: Just checking, what class would you give Cn1c(C(F)(F)F)cc(=O)n(-c2c(F)cc(Cl)c(O)c2NC(=O)c2ncccn2)c1=O [2-102] here?
Output: lowest

Input: Just checking, what class would you give COc1c(Cl)cc(F)c(-n2c(=O)cc(C(F)(F)F)n(C)c2=O)c1NC(=O)c1cccc2ccccc12 [2-74] here?
Output: middle

Input: Just checking, what class would you give COc1c(Cl)cc(F)c(-n2c(=O)cc(C(F)(F)F)n(C)c2=O)c1NC(=O)c1ccc(F)cc1 [2-40] here?
Output: highest

Input: Just checking, what class would you give COc1c(Cl)cc(F)c(-n2c(=O)cc(C(F)(F)F)n(C)c2=O)c1N(C(=O)COc1ccccc1)C(=O)COc1ccccc1 [2-120] here?
Output: highest

Input: Just checking, what class would you give COc1c(Cl)cc(F)c(-n2c(=O)cc(C(F)(F)F)n(C)c2=O)c1N(C(=O)C=Cc1ccccc1Cl)C(=O)C=Cc1ccccc1Cl [2-83] here?
Output: lowest

Input: Just checking, what class would you give COc1c(Cl)cc(F)c(-n2c(=O)cc(C(F)(F)F)n(C)c2=O)c1NC(=O)c1ccc2c(c1)OCO2 [2-73] here?
Output: highest

Input: Just checking, what class would you give COc1c(Cl)cc(F)c(-n2c(=O)cc(C(F)(F)F)n(C)c2=O)c1NC(=O)C=Cc1ccc(Cl)cc1 [2-84] here?
Output: lowest

Input: Just checking, what class would you give COc1c(Cl)cc(F)c(-n2c(=O)cc(C(F)(F)F)n(C)c2=O)c1NC(=O)C(=O)c1ccccc1 [2-121] here?
Output: lowest

Input: Just checking, what class would you give COc1c(Cl)cc(F)c(-n2c(=O)cc(C(F)(F)F)n(C)c2=O)c1NC(=O)c1ccc(Br)cc1 [2-61] here?
Output: highest

Input: Just checking, what class would you give Cn1c(C(F)(F)F)cc(=O)n(-c2c(F)cc(Cl)c(OCC#N)c2NC(=O)CCc2ccccc2)c1=O [2-87] here?
Output: middle

Input: Just checking, what class would you give COc1c(Cl)cc(F)c(-n2c(=O)cc(C(F)(F)F)n(C)c2=O)c1NC(=O)c1ccc(Cl)cc1 [2-56] here?
Output: middle

---

This listing pairs molecules with measured pest or weed control at 250 g/ha.
- Test system: large crabgrass (Digitaria sanguinalis, DIGSA)
- measurement-description: Pre-emerge test, greenhouse herbicide activity screening
- Assay type: in vivo
- condition-notes: Digitaria sanguinalis, pre-emergence, 336 h; pre-emerge, rate 250 g ai/ha, phytotoxicity rating 0-100 at 14 days after application; read-out: Pre-emerge Herbicidal Activity DIGSA
Supply the numeric figure in %, leaving out any unit text.

| molecule | measured-on | observed-property | unit-annotation | experimental-result |
| --- | --- | --- | --- | --- |
| Cc1nn(-c2c(F)cc(Cl)cc2NC(=O)c2ccc3ccccc3c2)c(=O)n1C(F)F [Compound 6-24] | large crabgrass (Digitaria sanguinalis, DIGSA) | pest or weed control at 250 g/ha | % | 20 |
| COc1c(Cl)cc(F)c(-c2nn(C)c(C(F)(F)F)c2Cl)c1NC(=O)C=Cc1ccccc1 [Compound 7-15] | large crabgrass (Digitaria sanguinalis, DIGSA) | pest or weed control at 250 g/ha | % | 60 |
| COc1c(Cl)cc(F)c(-n2nc(C)n(C(F)F)c2=O)c1NC(=O)c1ccc2ccccc2c1 [Compound 6-15] | large crabgrass (Digitaria sanguinalis, DIGSA) | pest or weed control at 250 g/ha | % | 100 |

Input: Consider the molecule Nc1c(O)c(Cl)cc(F)c1N1C(=O)C2=C(CCCC2)C1=O [Compound 8-2] . State its measured pest or weed control at 250 g/ha.
Output: 70

---

- System: upland rice (Oryza sp., var. Tebonnet, RICE)
- measurement-description: Post-emerge test, crop safety
- Format: in vivo
- condition-notes: 63 g ai/ha; post-emerge; 14 days after application; rating scale 0-100
Label YES when Post-emerge Herbicidal Activity RICE (crop damage rating) is strictly below 50; otherwise label NO.

Previously resolved entries follow.
| compound | measured-on | assigned-label |
| --- | --- | --- |
| COc1c(Cl)cc(F)c(-n2c(=O)cc(C(F)(F)F)n(C)c2=O)c1SC [Compound 17-1] | upland rice (Oryza sp., var. Tebonnet, RICE) | YES |
| COc1c(Cl)cc(F)c(-n2c(=O)cc(C(F)(F)F)n(C)c2=O)c1NN=CCCSC [15-14] | upland rice (Oryza sp., var. Tebonnet, RICE) | YES |
| Cn1c(C(F)(F)F)cc(=O)n(-c2c(O)cc(Cl)cc2Cl)c1=O [16-1] | upland rice (Oryza sp., var. Tebonnet, RICE) | YES |
| C#CCOC(=O)C(C)(Cl)Cc1c(OC)c(Cl)cc(F)c1-n1c(=O)cc(C(F)(F)F)n(C)c1=O (centres unmarked) [14-44] | upland rice (Oryza sp., var. Tebonnet, RICE) | YES |

Input: Check if Post-emerge Herbicidal Activity RICE (crop damage rating) falls below 50 for CCOC(=O)C(Cl)Cc1c(OCC)c(Cl)cc(F)c1-n1c(=O)cc(C(F)(F)F)n(C)c1=O (centres unmarked) [14-63] .
Output: YES

Input: Check if Post-emerge Herbicidal Activity RICE (crop damage rating) falls below 50 for COc1c(Cl)cc(F)c(-n2c(=O)cc(C(F)(F)F)n(C)c2=O)c1NN=CC1CC1 [Compound 15-11] .
Output: NO

Input: Check if Post-emerge Herbicidal Activity RICE (crop damage rating) falls below 50 for COc1c(Cl)cc(F)c(-n2c(=O)cc(C(F)(F)F)n(C)c2=O)c1NN=CC(C)c1ccccc1 (centres unmarked) [15-17] .
Output: NO

---

This listing pairs compounds with measured phytotoxicity rating AMARE.
- Test system: redroot pigweed (Amaranthus retroflexus, AMARE)
- measurement-description: Pre-emerge test, greenhouse herbicide activity screening
- Type: in vivo
- condition-notes: pre-emerge, 63 g ai/ha, 14 days after application, scale 0-100
Kindly provide the number alone.

Here is how some compounds turned out for phytotoxicity rating AMARE.
| compound | phytotoxicity rating AMARE |
| --- | --- |
| COc1c(Cl)cc(F)c(-n2c(=O)cc(C(F)(F)F)n(C)c2=O)c1NC(=O)COc1ccc(Cl)cc1Cl | 100 |
| COc1c(Cl)cc(F)c(-n2c(=O)cc(C(F)(F)F)n(C)c2=O)c1NC(=O)c1ccc2c(C#N)cccc2c1 | 100 |
| COc1ccc(-n2c(=O)cc(C(F)(F)F)n(C)c2=O)c(NC(=O)c2ccc3ccccc3c2)c1 | 100 |
| COc1c(Cl)cc(F)c(-n2c(=O)cc(C(F)(F)F)n(C)c2=O)c1NC(=O)CCc1ccccc1C | 90 |

Input: Consider the compound Cc1c(Cl)cc(F)c(-n2c(=O)cc(C(F)(F)F)n(C)c2=O)c1NC(=O)C=Cc1ccccc1 . State its measured phytotoxicity rating AMARE.
Output: 100

Input: Consider the compound CCOC(=O)CSCC(=O)Nc1c(OC)c(Cl)cc(F)c1-n1c(=O)cc(C(F)(F)F)n(C)c1=O . State its measured phytotoxicity rating AMARE.
Output: 70

Input: Consider the compound COc1cc2ccccc2cc1C(=O)Nc1c(OC)c(Cl)cc(F)c1-n1c(=O)cc(C(F)(F)F)n(C)c1=O . State its measured phytotoxicity rating AMARE.
Output: 100

Input: Consider the compound COc1c(Cl)cc(F)c(-n2c(=O)cc(C(F)(F)F)n(C)c2=O)c1NC(=O)CCc1cc(C)ccc1C [2-132] . State its measured phytotoxicity rating AMARE.
Output: 100

Input: Consider the compound COc1c(C#N)cc(F)c(-n2c(=O)cc(C(F)(F)F)n(C)c2=O)c1NC(=O)c1ccc2ccccc2c1 . State its measured phytotoxicity rating AMARE.
Output: 100

Input: Consider the compound COc1c(Cl)cc(F)c(-n2c(=O)cc(C(F)(F)F)n(C)c2=O)c1NC(=O)c1ccc2c(Br)cccc2c1 . State its measured phytotoxicity rating AMARE.
Output: 100

Input: Consider the compound Cn1c(C(F)(F)F)cc(=O)n(-c2c(F)cc(OC(F)F)cc2NC(=O)c2ccc3ccccc3c2)c1=O . State its measured phytotoxicity rating AMARE.
Output: 100

Input: Consider the compound CCOC(=O)C(C)Oc1ccc(-n2c(=O)cc(C(F)(F)F)n(C)c2=O)c(NC(=O)c2ccc3ccccc3c2)c1 (stereo not shown) . State its measured phytotoxicity rating AMARE.
Output: 30
